Experiment: Zeta-potential measurement
Format: physicochemical
Settings: 1 mg/mL in PBS pH 7.4 from 10 mg/mL DMSO stock, 1 d RT, 60 µL diluted in 600 µL 1 mM KCl; Zetasizer Nano ZS, Smoluchowski; mean of triplicate
List of Zeta pot. / mV values.

>  <substance>
LASLIYR [reference compound]

>  <Zeta pot. / mV [mV]>
-5.0

$$$$
>  <substance>
CKAKAQANMWQ

>  <Zeta pot. / mV [mV]>
0.7

$$$$
>  <substance>
GQTVTK [reference compound]

>  <Zeta pot. / mV [mV]>
-5.3

$$$$
>  <substance>
KAKAQANM

>  <Zeta pot. / mV [mV]>
-2.6

$$$$
>  <substance>
VQIVYK [reference compound]

>  <Zeta pot. / mV [mV]>
-2.7

$$$$
>  <substance>
RCELARTLKR [reference compound]

>  <Zeta pot. / mV [mV]>
-0.9

$$$$
>  <substance>
KAQCTLP

>  <Zeta pot. / mV [mV]>
-8.503

$$$$
>  <substance>
RVHLGLG

>  <Zeta pot. / mV [mV]>
-6.01

$$$$
>  <substance>
MKVIFLKDVKG [reference compound]

>  <Zeta pot. / mV [mV]>
9.6

$$$$
>  <substance>
NSGAITIG-NH2 [reference compound]

>  <Zeta pot. / mV [mV]>
-8.4

$$$$
>  <substance>
GNNQQNY [reference compound]

>  <Zeta pot. / mV [mV]>
-6.6

$$$$
>  <substance>
KFKFQFN

>  <Zeta pot. / mV [mV]>
12.7

$$$$
>  <substance>
CRLRVGVS

>  <Zeta pot. / mV [mV]>
10.53

$$$$

The origin of these recorded values is paper PMC10447463.
